# Condition Set: in water, 332.45 K
Quantity Name: solubility (mole fraction)

         given_smiles  readout_value
0  O=C(O)CCCCCCC(=O)O         0.0017

----------
# Condition Set: in ethanol, 310.95 K
Quantity Name: solubility (mole fraction)

In [3]: df
Out[3]:
         given_smiles               quantity_name  readout_value
0  O=C(O)CCCCCCC(=O)O  solubility (mole fraction)         0.0491

----------
# Condition Set: in ethyl acetate, 303.95 K
Quantity Name: solubility (mole fraction)

>>> print(df.to_string())
         given_smiles               quantity_name  readout_value
0  O=C(O)CCCCCCC(=O)O  solubility (mole fraction)        0.00462

----------
# Condition Set: in isopropanol, 283.15 K
Quantity Name: solubility (mole fraction)

         given_smiles               quantity_name  readout_value
0  O=C(O)CCCCCCC(=O)O  solubility (mole fraction)         0.0145

----------
# Condition Set: in isopropanol, 296.95 K
Quantity Name: solubility (mole fraction)

         given_smiles  readout_value
0  O=C(O)CCCCCCC(=O)O         0.0271

----------
# Condition Set: in THF, 296.85 K
Quantity Name: solubility (mole fraction)

>>> print(df.to_string())
         given_smiles  readout_value
0  O=C(O)CCCCCCC(=O)O         0.0546

----------
# Condition Set: in ethanol, 317.85 K
Quantity Name: solubility (mole fraction)

In [3]: df
Out[3]:
         given_smiles  readout_value
0  O=C(O)CCCCCCC(=O)O         0.0627

----------
# Condition Set: in isopropanol, 317.95 K
Quantity Name: solubility (mole fraction)

         given_smiles  readout_value
0  O=C(O)CCCCCCC(=O)O         0.0639

----------
# Condition Set: in ethanol, 303.85 K
Quantity Name: solubility (mole fraction)

>>> df
         given_smiles  readout_value
0  O=C(O)CCCCCCC(=O)O         0.0374

----------
# Condition Set: in acetone, 303.75 K
Quantity Name: solubility (mole fraction)

>>> print(df.to_string())
         given_smiles  readout_value
0  O=C(O)CCCCCCC(=O)O         0.0154

----------
# Condition Set: in THF, 310.75 K
Quantity Name: solubility (mole fraction)

>>> df
         given_smiles  readout_value
0  O=C(O)CCCCCCC(=O)O         0.0806

----------
# Condition Set: in ethyl acetate, 296.85 K
Quantity Name: solubility (mole fraction)

In [3]: df
Out[3]:
         given_smiles               quantity_name  readout_value
0  O=C(O)CCCCCCC(=O)O  solubility (mole fraction)         0.0031

----------
# Condition Set: in isopropanol, 303.55 K
Quantity Name: solubility (mole fraction)

         given_smiles               quantity_name  readout_value
0  O=C(O)CCCCCCC(=O)O  solubility (mole fraction)         0.0368

----------
# Condition Set: in acetone, 289.95 K
Quantity Name: solubility (mole fraction)

>>> print(df.to_string())
         given_smiles  readout_value
0  O=C(O)CCCCCCC(=O)O        0.00833
